Settings: human gut metagenome, 24 h, 2 µM; also: call rule not given here
observationType: Bacterial Biotransformation

compound	observationType	measuredValue
CC1=C(CC(=O)O)c2cc(F)ccc2/C1=C\c1ccc([S+](C)[O-])cc1 (centres undefined)	Bacterial Biotransformation	Compound metabolized
COc1ccc(/C=C/C(=O)Nc2ccccc2C(=O)O)cc1OC	Bacterial Biotransformation	Compound NOT metabolized
O=C(CCCN1CCC2(CC1)C(=O)NCN2c1ccccc1)c1ccc(F)cc1	Bacterial Biotransformation	Compound NOT metabolized
COC(=O)C(c1ccccc1)C1CCCCN1 (centres undefined) [METHYLPHENIDATE]	Bacterial Biotransformation	Compound NOT metabolized
CC[C@H](C)C(=O)O[C@H]1CCC=C2C=C[C@H](C)[C@H](CC[C@@H]3C[C@@H](O)CC(=O)O3)[C@H]21	Bacterial Biotransformation	Compound metabolized

According to the records, this compound CCOc1ccc2nc(S(N)(=O)=O)sc2c1 [ETHOXZOLAMIDE] displays Bacterial Biotransformation of Compound NOT metabolized

According to the records, this compound C=CC[C@@H]1/C=C(\C)C[C@H](C)C[C@H](OC)[C@H]2O[C@@](O)(C(=O)C(=O)N3CCCC[C@H]3C(=O)O[C@H](/C(C)=C/[C@@H]3CC[C@@H](O)[C@H](OC)C3)[C@H](C)[C@@H](O)CC1=O)[C@H](C)C[C@@H]2OC.O displays Bacterial Biotransformation of Compound metabolized

According to the records, this compound CC#CCn1c(N2CCC[C@@H](N)C2)nc2c1c(=O)n(Cc1nc(C)c3ccccc3n1)c(=O)n2C displays Bacterial Biotransformation of Compound NOT metabolized
